B1: Serine/threonine-protein kinase A-Raf, residues 21 to 89; numbered along this chain, P10398 (parent)
chain: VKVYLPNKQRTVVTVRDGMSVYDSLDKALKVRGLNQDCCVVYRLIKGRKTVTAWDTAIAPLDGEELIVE

variants of: B1; assay: abundance fitness (aPCA) (normalised: wild type 0, dead -1); higher = more abundant; growth selection in yeast, the domain comes from the species named; details: Homo sapiens
Everything with abundance fitness lower than -0.5 is 0; everything else, including exactly -0.5, is 1.

Does `L44S` have a reported abundance fitness of at least -0.5? 1

For `V41T` then? 0

How about this variant: `D62H` 1

Then `D26Y` ? 1

Same question for `D26H` please. 1

Same for `T11S` 0

Check `D26I` too. 1

Repeat with `D62A` 1

Likewise for `R32S` ? 1

Moving on to the next variant: `Y42Q` 0

Try the variant `A28F` 1

Same for `L5K` 0

`D62I` ? 1

Now the same for `Y22R` 1

Same thing, different variant: `W54Q` 0

Again, but for `D62T` 1

Do the same for `R10M` please 1

Now give it for `T52R` too. 0

How about `V31R` ? 1

One more variant: `K46E` 1

Same for `T11W` 0
